assay: High-throughput drug toxicity screening in the BPDCN cell line Cal-1 (AID 1224825); conditions: Cal-1 BPDCN cell viability, qHTS; at 45.8 µM (top of the series) unless noted;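 note: cells exposed to compounds for 48 h; 100% = DMSO and 0% = bortezomib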
Reported values of viability (% of control) for individual entries

COMPOUND: Cc1cc(C(C)Nc2ccccc2)c2nc(N3CCOCC3)cc(=O)n2c1 (centres undefined)
viability (% of control): 62.3%

COMPOUND: CN1CCN(c2cccc(Nc3nc4c(-c5ccc(S(C)(=O)=O)cc5)cccn4n3)c2)CC1
viability (% of control): 50.9%

COMPOUND: COC(=O)N1CCN(Cc2cccc(NC(=O)Nc3ccc(C)nc3)c2F)CC1
viability (% of control): 90.8%

COMPOUND: CN1CCc2c(n(Cc3ccc(C(=O)NO)cc3)c3ccccc23)C1
viability (% of control): 3.16%

COMPOUND: CC(C)(OCc1nn(Cc2ccccc2)c2ccccc12)C(=O)O
viability (% of control): 109%

**Query** Quick one: give measured viability (% of control) for `CC(=O)NCCC(=O)N[C@@H](CCC(N)=O)C(=O)N[C@@H](CO)C(=O)N[C@@H](CCC(N)=O)C(=O)N[C@@H](CCC(N)=O)C(=O)N[C@H](C(=O)N[C@@H](Cc1ccccc1)C(=O)N[C@]1(C)CCCCCCC=CCCC[C@@](C)(C(=O)N[C@@H](CCC(N)=O)C(=O)N[C@@H](CC(N)=O)C(N)=O)NC(=O)[C@H](CC(C)C)NC(=O)[C@H](CC(C)C)NC(=O)[C@@H](CCCNC(=N)N)NC(=O)[C@H](Cc2c[nH]c3ccccc23)NC(=O)[C@H](CC(C)C)NC(=O)[C@H](CC(N)=O)NC1=O)[C@H](C)O`
**Result** 78.7%

**Query** For CCCCCOC(=O)Nc1nc(=O)n([C@@H]2O[C@H](C)[C@@H](O)C2O)cc1F (some centres undefined) , write its viability (% of control).
**Result** 102%

**Query** Given the compound `CC(C)c1c(C(=O)Nc2ccccc2)c(-c2ccccc2)c(-c2ccc(F)cc2)n1CC[C@H](O)C[C@@H](O)CC(=O)O` , write its reported viability (% of control).
**Result** 93.6%

**Query** Specify reported viability (% of control) for the compound shown: `CCC(=C(c1ccc(O)cc1)c1ccc(OCCNC)cc1)c1ccccc1`
**Result** 4.15%

**Query** In one line, give reported viability (% of control) of the entry `CN(C)c1ccccc1CN1CCCN(Cc2ccccc2N(C)C)C1c1ccncc1` .
**Result** 29.7%

**Query** Please report viability (% of control) for the following compound: `Cc1ccc2c(c1)C(=O)[C@]1(O)CCN(c3ccccc3)C1=N2`
**Result** 34.3%
